TARGET: human brain-derived dopamine D4 receptor (Homo sapiens)
Construct: expressed in transfected cells; host or cells: CHO (CHO-K1) or HEK293 cells
Sequence (P21917 whole entry): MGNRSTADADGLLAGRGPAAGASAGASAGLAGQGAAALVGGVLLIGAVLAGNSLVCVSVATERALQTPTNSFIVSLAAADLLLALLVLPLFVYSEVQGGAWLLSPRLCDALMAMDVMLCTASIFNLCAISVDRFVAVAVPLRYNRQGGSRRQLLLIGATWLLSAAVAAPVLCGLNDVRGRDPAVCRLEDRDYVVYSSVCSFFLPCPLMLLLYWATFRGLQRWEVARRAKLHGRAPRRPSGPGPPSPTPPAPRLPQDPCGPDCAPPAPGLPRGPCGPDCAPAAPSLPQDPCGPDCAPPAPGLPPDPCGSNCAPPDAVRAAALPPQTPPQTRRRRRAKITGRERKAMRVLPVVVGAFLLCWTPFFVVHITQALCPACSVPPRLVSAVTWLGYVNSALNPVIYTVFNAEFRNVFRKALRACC
PROCEDURE_TEXT: Agonistic activity in G protein dependent pathway of dopamine D4 receptor (aequorin intracellular calcium luminescence, FDSS)
Assay type: cell-based
CONDITION_PARAMETERS: read-out: Maximal activity on D4 receptor (%)
Protocol: The G protein dependent pathway is a pathway for transmitting signals in cells via a second messenger by stimulating a G protein through the binding of guanosine triphosphate (GTP) to the G protein. […] The agonistic activities of the present compounds in the G protein dependent pathway were evaluated on the basis of intracellular calcium levels as follows. […]

- MOL_SMILES: "Cc1c(-c2ncccc2F)nn2c1CN(Cc1ccc(C(F)(F)F)cn1)CC2"
  Emax [%]: 86
- MOL_SMILES: "COc1ccccc1-c1cc2n(n1)CCN(Cc1ccc(F)cc1F)C2"
  Emax [%]: 57
- MOL_SMILES: "Cc1c(-c2ccccn2)nn2c1CN(Cc1ccc(C(F)(F)F)nc1N)CC2"
  Emax [%]: 64
- MOL_SMILES: "Cc1cccnc1-c1cc2n(n1)CCN(Cc1ccc(C(F)(F)F)nc1)C2"
  Emax [%]: 48
- MOL_SMILES: "Cc1cccnc1-c1cc2n(n1)CCN(Cc1cc3ccccn3n1)C2"
  Emax [%]: 55
- MOL_SMILES: "Cc1cccnc1-c1cc2n(n1)CCN(Cc1cnc3c(c1)CCCC3)C2"
  Emax [%]: 44
- MOL_SMILES: "Cc1cccc(CN2CCn3nc(-c4ncccc4C)c(C)c3C2)n1"
  Emax [%]: 105
- MOL_SMILES: "Fc1c(-c2ccccn2)nn2c1CN(Cc1ccccc1)CC2"
  Emax [%]: 51
- MOL_SMILES: "Cc1ccc(CN2CCn3nc(-c4ncccc4C)c(C)c3C2)cc1"
  Emax [%]: 65
- MOL_SMILES: "O=C1CCc2ccc(CN3CCn4nc(-c5ccccn5)cc4C3)cc2N1"
  Emax [%]: 42
- MOL_SMILES: "Cc1ccc(CN2CCn3nc(-c4ncccc4F)cc3C2)cn1"
  Emax [%]: 41
- MOL_SMILES: "Cc1cccnc1-c1cc2n(n1)CCN(Cc1n[nH]c3cc(F)ccc13)C2"
  Emax [%]: 79
- MOL_SMILES: "Cc1cccnc1-c1cc2n(n1)CCN(Cc1cn3c(n1)CCCC3)C2"
  Emax [%]: 47
- MOL_SMILES: "Cc1c(-c2ccccn2)nn2c1CN(Cc1ccccc1)CC2"
  Emax [%]: 89
- MOL_SMILES: "Cc1c(-c2ccccn2)nn2c1CN(Cc1ccc(C(F)(F)F)nc1)CC2"
  Emax [%]: 56
- MOL_SMILES: "Fc1cccnc1-c1cc2n(n1)CCN(Cc1ccc3c(n1)CCC3)C2"
  Emax [%]: 91
- MOL_SMILES: "Cc1ccc(CN2CCn3nc(-c4ncccc4C)cc3C2)cn1"
  Emax [%]: 64
- MOL_SMILES: "c1ccc(-c2cc3n(n2)CCN(Cc2cccc4[nH]cnc24)C3)nc1"
  Emax [%]: 46
- MOL_SMILES: "Cc1cccnc1-c1cc2n(n1)CCN(Cc1ccc(C(F)(F)F)c(F)c1)C2"
  Emax [%]: 50
- MOL_SMILES: "Cc1ccc(CN2CCn3nc(-c4ncccc4C)cc3C2)cc1"
  Emax [%]: 99
- MOL_SMILES: "Cc1ccc(CN2CCn3nc(-c4ncccc4C)cc3C2)nc1"
  Emax [%]: 61
- MOL_SMILES: "Cc1cccnc1-c1nn2c(c1C)CN(Cc1ccc(C(F)(F)F)nc1)CC2"
  Emax [%]: 51
- MOL_SMILES: "Cc1cccnc1-c1cc2n(n1)CCN(Cc1cc(OC(F)(F)F)ccc1F)C2"
  Emax [%]: 42
- MOL_SMILES: "Cn1cc(CN2CCn3nc(-c4ncccc4F)cc3C2)c2ccccc21"
  Emax [%]: 85
- MOL_SMILES: "CN1Cc2ccc(CN3CCn4nc(-c5ccccn5)cc4C3)cc2C1"
  Emax [%]: 71
- MOL_SMILES: "Cc1cccnc1-c1cc2n(n1)CCN(Cc1n[nH]c3c(F)cccc13)C2"
  Emax [%]: 70
- MOL_SMILES: "Cc1cccnc1-c1cc2n(n1)CCN(Cc1cccc(C(F)(F)F)c1)C2"
  Emax [%]: 59
- MOL_SMILES: "Cc1c(-c2ncccc2F)nn2c1CN(Cc1ccc3c(n1)CCCC3)CC2"
  Emax [%]: 76
- MOL_SMILES: "Fc1cccnc1-c1cc2n(n1)CCN(Cc1cnc(C(F)F)nc1)C2"
  Emax [%]: 36
- MOL_SMILES: "Cc1ncc(CN2CCn3nc(-c4ncccc4C)cc3C2)c(N)n1"
  Emax [%]: 53
- MOL_SMILES: "Cc1ncc(CN2CCn3nc(-c4ncccc4C)cc3C2)c(C)n1"
  Emax [%]: 61
- MOL_SMILES: "Fc1ccc(CN2CCn3nc(-c4ncccc4F)cc3C2)nc1"
  Emax [%]: 53
